# Test system: viable cells in culture
# experimental-protocol: Cell viability assay (CellTiter-Glo Luminescent Cell Viability Assay, ATP quantitation, percent of vehicle control)
reported-metric: Average Cell Viability after 24 Hours (% DMSO)
Value and unit, in that order.

| compound | assayed-target | result-value |
| --- | --- | --- |
| CCOC(=O)c1ccc(N2C(=O)c3[nH]nc(-c4cccs4)c3C2c2ccc(O)c(OCC)c2)cc1 (stereo not shown) | viable cells in culture | 57.55 % DMSO |
| CC(=O)NC(c1ccc(N(C)C)cc1)c1cc(Cl)c2cccnc2c1O (stereo not shown) | viable cells in culture | 53.52 % DMSO |
| COC(=O)CSc1nnc(-c2sc3ccccc3c2Cl)n1C | viable cells in culture | 90.44 % DMSO |
| O=C(CSc1ccc(-c2ccccn2)nn1)Nc1ccccc1F | viable cells in culture | 82.05 % DMSO |
| O=C(Oc1ccc([N+](=O)[O-])cc1)c1cc(S(=O)(=O)N2CCOCC2)cs1 | viable cells in culture | 96.05 % DMSO |
| CCc1ccc(NC2c3ccccc3C(=O)N2Cc2ccc3c(c2)OCO3)cc1 (stereo not shown) | viable cells in culture | 86.99 % DMSO |
| O=C(Cc1ccccc1)N/N=C/c1cccc2cccnc12 | viable cells in culture | 75.11 % DMSO |
| O=C(NCCSCc1ccccc1)c1cc(-c2cccs2)on1 | viable cells in culture | 102.96 % DMSO |

Average Cell Viability after 24 Hours (% DMSO) reading for CCCC1=NN(c2ccc(C(=O)OCC)cc2)C(=O)C1 : 62.51 % DMSO

* * *

# System: viable cells in culture
# experimental-protocol: Cell viability assay (CellTiter-Glo Luminescent Cell Viability Assay, ATP quantitation, percent of vehicle control)
reported-metric: Average Cell Viability after 24 Hours (% DMSO)
Dear colleague, please return just the value in % DMSO, with no unit written.

Example results:
| compound | result-value |
| --- | --- |
| Cc1nnc(SCC2=NN(c3nc4ccccc4[nH]3)C(=O)C2)s1 | 73.41 |
| O=C(NC(=S)Nc1cc([N+](=O)[O-])ccc1O)c1ccc(Br)o1 | 94.19 |
| S=C(Nc1cccc(Cl)c1)Nc1cc(Cl)ccc1Cl | 45.42 |
| CC(=O)NC(c1cccs1)c1cc(Cl)c2cccnc2c1O (stereo not drawn) | 60.80 |
| CCOC(=O)N1CCN(C(=O)CCc2ccc(S(=O)(=O)NCCc3ccccc3)cc2)CC1 | 101.03 |
| CCCc1cc(=O)n2ncc(-c3ccc(Cl)cc3)c2[nH]1 | 62.57 |
| CC(C)Cc1nnc(SCC(=O)Nc2ccc(Br)cn2)[nH]1 | 98.43 |
| Cc1ccc(-c2cc(C(=O)Nc3nc4ccc(S(C)(=O)=O)cc4s3)no2)cc1 | 85.84 |

Could you now consider this next compound?
Recorded result, Cc1ccnc(NC(c2ccc([N+](=O)[O-])cc2)c2ccc3ccc(C)nc3c2O)c1 (stereo not drawn) , Average Cell Viability after 24 Hours (% DMSO): 70.69

* * *

# Test system: viable cells in culture
# experimental-protocol: Cell viability assay (CellTiter-Glo Luminescent Cell Viability Assay, ATP quantitation, percent of vehicle control)
Parameter Average Cell Viability after 24 Hours (% DMSO): see the listing below.
Write the value in % DMSO as a bare number.

Average Cell Viability after 24 Hours (% DMSO) measured on O=C(CSc1nnc(-c2ccncc2)o1)NCc1ccccc1Br = 100.09

GET /value?item= CCOC(=O)COc1ccc(S(=O)(=O)Nc2ccc(C(=O)OC)cc2)cc1 &field=Average Cell Viability after 24 Hours (% DMSO) returns 80.11

// CCOc1ccc(NC(=O)c2c(NC(=O)c3ccncc3)sc3c2CCC(C(C)(C)C)C3)cc1 (stereo not shown) : Average Cell Viability after 24 Hours (% DMSO) value = 112.57

The reported Average Cell Viability after 24 Hours (% DMSO) of the compound Cc1cc(OCC(=O)N/N=C/c2c(C)nn(-c3ccccc3)c2O)ccc1Cl was 112.70

* * *

# System: viable cells in culture
# experimental-protocol: Cell viability assay (CellTiter-Glo Luminescent Cell Viability Assay, ATP quantitation, percent of vehicle control)
Please enter y where Average Cell Viability after 24 Hours (% DMSO) is greater than or equal to 80 % DMSO, and n where it is lower.

Below are worked cases with known answers.
| compound | label |
| --- | --- |
| Cc1ccn2c(-c3csc(Nc4ccc(C(=O)O)cc4)n3)c(C)nc2c1 | y |
| CCCCNC(=O)c1cc(-c2cccs2)on1 | y |
| COc1ccc(NC(=S)NCc2ccco2)c(OC)c1 | y |

Inquiry: Given the entry CCc1c(C)nc(-n2nc(C)cc2NC(=O)C2c3ccccc3Oc3ccccc32)[nH]c1=O , answer whether its Average Cell Viability after 24 Hours (% DMSO) meets or surpasses 80 % DMSO.
Reply text: n

Inquiry: Given O=C(O)CCC(=O)Nc1nc(-c2ccccn2)cs1 , state whether its Average Cell Viability after 24 Hours (% DMSO) is at least 80 % DMSO.
Reply text: y

Inquiry: Determine whether measured Average Cell Viability after 24 Hours (% DMSO) meets or exceeds 80 % DMSO for CCN(CC)c1ccc(C(NC(=O)C(C)C)c2cc(Cl)c3cccnc3c2O)cc1 (stereo not shown)
Reply text: n

Inquiry: API: above_or_equal(metric=Average Cell Viability after 24 Hours (% DMSO), cutoff=80 % DMSO) for item O=C(NCCOc1ccccc1)c1cc(-c2cccs2)on1
Reply text: y

Inquiry: Is reported Average Cell Viability after 24 Hours (% DMSO) greater than or equal to 80 % DMSO here: CCCCN1C(C(=O)c2ccccc2)=C(OC(C)=O)c2ccccc2S1(=O)=O
Reply text: n

Inquiry: Confirm if Average Cell Viability after 24 Hours (% DMSO) reported for the compound CC1=NN(c2nc3ccccc3s2)C(=O)C1CCC(C)C (stereo not shown) is 80 % DMSO or above.
Reply text: n

Inquiry: For this compound, is measured Average Cell Viability after 24 Hours (% DMSO) 80 % DMSO or higher? Cc1nc(-n2nc(C)c(CCC(=O)N3CCN(c4ccc(F)cc4)CC3)c2O)sc1C
Reply text: y

Inquiry: Answer whether Average Cell Viability after 24 Hours (% DMSO) of CCCCNC(=O)Cc1c(C)nn(-c2nc(C)c(C)s2)c1O is greater than or equal to 80 % DMSO.
Reply text: y

* * *

# Test system: viable cells in culture
# experimental-protocol: Cell viability assay (CellTiter-Glo Luminescent Cell Viability Assay, ATP quantitation, percent of vehicle control)
reported-metric: Average Cell Viability after 24 Hours (% DMSO)
Give the value, in units of % DMSO, as a plain number.

| molecule | assayed-target | u | result-value |
| --- | --- | --- | --- |
| O=C(COc1ccccc1)NC(/C=C/c1ccccc1)c1cc(Cl)c2cccnc2c1O (stereo not drawn) | viable cells in culture | % DMSO | 74.68 |
| O=C(Nc1nc(COc2ccccc2)cs1)c1sc2cc(Cl)ccc2c1Cl | viable cells in culture | % DMSO | 75.12 |
| CN(C)S(=O)(=O)c1ccc(C(=O)Nc2nc(-c3ccccn3)cs2)cc1 | viable cells in culture | % DMSO | 76.43 |
| O=C(O)c1ccc(NC(=S)NC(=O)c2cccc(Cl)c2)cc1 | viable cells in culture | % DMSO | 82.14 |
| O=C(Nc1ccccc1OC(F)F)C(c1ccccc1)c1ccccc1 | viable cells in culture | % DMSO | 82.48 |

// sample Oc1ccc2nc(N3CCOCC3)sc2c1 , its Average Cell Viability after 24 Hours (% DMSO) was 96.63

The molecule listed as Nc1c2ccccc2nc2ccccc12 has a reported Average Cell Viability after 24 Hours (% DMSO) of 57.96

Record summary for Cc1ccccc1NC(=O)C1CCN(S(=O)(=O)c2ccc(Br)cc2)CC1 : reported Average Cell Viability after 24 Hours (% DMSO) = 88.77

Record O=C(NCCc1ccccc1)c1cc(-c2cccs2)on1 , field Average Cell Viability after 24 Hours (% DMSO): 80.02

* * *

# Test system: viable cells in culture
# experimental-protocol: Cell viability assay (CellTiter-Glo Luminescent Cell Viability Assay, ATP quantitation, percent of vehicle control)
Known Average Cell Viability after 24 Hours (% DMSO) of a selection of molecules
Write the value in % DMSO as a bare number.

Example molecules with recorded Average Cell Viability after 24 Hours (% DMSO):
| molecule | assayed-target | u | result-value |
| --- | --- | --- | --- |
| O=C(NCCN1CCOCC1)c1cc(-c2ccccc2)on1 | viable cells in culture | % DMSO | 84.31 |
| CCC(=O)NC(c1ccccc1OC)c1cc([N+](=O)[O-])c2cccnc2c1O (stereo not shown) | viable cells in culture | % DMSO | 65.27 |
| O=c1c2c([nH]c3c(-c4ccc(Cl)cc4)cnn13)CCC2 | viable cells in culture | % DMSO | 59.19 |
| CCCCNC(=O)c1cc(-c2ccc(F)cc2)on1 | viable cells in culture | % DMSO | 85.44 |
| O=C(Nc1nc(-c2ccccn2)cs1)C1COc2ccccc2O1 (stereo not shown) | viable cells in culture | % DMSO | 55.98 |

Record CCNC(=O)c1cc(-c2cccs2)on1 ; system viable cells in culture; Average Cell Viability after 24 Hours (% DMSO) = 87.06

With viable cells in culture as the test system, COc1ccc2sc(Nc3nc(C)n(-c4ccccc4)c(=O)n3)nc2c1 showed Average Cell Viability after 24 Hours (% DMSO) of 36.74

Item: CCC(Nc1ccc(Br)cc1)C(=O)N/N=C/c1c(O)ccc2ccccc12 (stereo not shown) | System: viable cells in culture | Average Cell Viability after 24 Hours (% DMSO): 56.81

Average Cell Viability after 24 Hours (% DMSO) for viable cells in culture with input COc1ccc(OCC(=O)N/N=C/c2cccc3cccnc23)cc1 equals 84.79

Per the reported viable cells in culture data, CC1=NN(c2ccccc2)C(=O)/C1=C\NNC(=O)c1ccccc1 has Average Cell Viability after 24 Hours (% DMSO) of 80.62

viable cells in culture data for Cc1ccc(-c2cc(C(=O)NCCc3ccc(S(N)(=O)=O)cc3)no2)cc1 ; its Average Cell Viability after 24 Hours (% DMSO): 95.31

Entry O=S(=O)(Nc1cccc2cccnc12)N1CCCCCC1 , tested on viable cells in culture, has a reported Average Cell Viability after 24 Hours (% DMSO) of 65.74

Note to self: Average Cell Viability after 24 Hours (% DMSO) of COc1ccc(C(NC(=O)C(C)C)c2cc([N+](=O)[O-])c3cccnc3c2O)cc1 (stereo not shown) with viable cells in culture was 80.10

Bench note, viable cells in culture: entry Oc1cc(CSc2ccc(Cl)cc2)nn1-c1ccccc1 , its Average Cell Viability after 24 Hours (% DMSO) = 75.26

Reported Average Cell Viability after 24 Hours (% DMSO) (viable cells in culture) for entry CCc1ccc(S(=O)(=O)N(C(=O)c2ccccc2)c2ccc3oc(C)c(C(C)=O)c3c2)cc1 is 86.61
